Experiment: qHTS Assay for inhibitors of the human cytomegalovirus (HCMV); also: % is scaled to controls: 0 for no effect and ±100 for the full control effect
Conditions: HFF cells, HCMV-luciferase reporter, 72 h; at 57.5 µM; stronger effect = lower value
The campaign covered roughly 410,000 compounds. About 18,000 (4.4%) were called active. About 7% were inconclusive and are not listed. Only a selection was taken, and actives are over-represented in it overall.
Result Type: activity change, negative = inhibition (%)

>>> print(df.to_string())
                                    compound                             result_type  numeric_value
 0  CCOC(=O)c1ccc(COC(=O)c2cc(=O)[nH]c3ccccc23)o1  activity change, negative = inhibition          -5.78
 1               Cc1cccc(C)c1NC(=S)N1CCCCCC1  activity change, negative = inhibition          -64.3
 2  Cn1c(CN2CCOCC2)nc2cc(NC(=O)c3ccc(Cl)cc3)ccc21  activity change, negative = inhibition          -84.5
 3  CN1CCN(Cc2nc3cc(NC(=O)COc4ccc([N+](=O)[O-])cc4)ccc3n2C)CC1  activity change, negative = inhibition           18.6
 4  CCOc1ccccc1N1CCN(C(=O)c2ccc3[nH]c(C)c(C)c3c2)CC1  activity change, negative = inhibition          -4.04
 5  CC1CCCN(c2csc3ccc(F)cc3c2=O)C1 (configuration not stated)  activity change, negative = inhibition           20.9
 6           CSc1nc(C)nc2c1c(=O)n(C)c(=O)n2C  activity change, negative = inhibition           6.36
 7  COc1ccccc1CNC(=O)C(=O)NCC(c1ccco1)S(=O)(=O)c1ccc(F)cc1 (configuration not stated)  activity change, negative = inhibition          -13.4
 8  O=C(CCc1ccc(S(=O)(=O)N2CCOCC2)cc1)Nc1ccc2ccccc2c1  activity change, negative = inhibition          -9.83
 9            CCc1c(Nc2ccccc2C)nc(N)[nH]c1=O  activity change, negative = inhibition           90.6
10           Cc1[nH]c(N)nc(=S)c1CCCNc1ccccc1  activity change, negative = inhibition          -99.8
11             Cc1cccc(NC(=S)N2CCC(O)CC2)c1C  activity change, negative = inhibition          -32.2
12  COc1ccccc1N1CCN(C(=O)c2ccc(NC3=NC4CS(=O)(=O)CC4S3)cc2)CC1 (configuration not stated)  activity change, negative = inhibition          -1.18
13  COc1ccc(/C=C/C(=O)Nc2ccc(C)cc2)cc1S(=O)(=O)N1CCOCC1  activity change, negative = inhibition          -73.1
14   O=C(Nc1ccc(CN2CCOCC2)cc1)c1cc(Cl)ccc1Cl  activity change, negative = inhibition          -13.5
15          Cc1cc(=O)n(C)c(=O)n1CCCNc1ccccc1  activity change, negative = inhibition          -33.2
16  O=C(NC1CCCCC1)c1ccc(Cn2c(SCc3ccccc3)nc3cccnc32)cc1  activity change, negative = inhibition           13.4
17  COc1ccccc1N1CCN(C(=O)c2cc(=O)c3cc(C)cc(C)c3o2)CC1  activity change, negative = inhibition          -72.5
18  COc1ccc(C(=O)N(Cc2ccccc2)c2ccc(C)cc2)cc1S(=O)(=O)N1CCOCC1  activity change, negative = inhibition          -15.2
19    O=C(CC(CC(=O)c1ccccc1)c1ccco1)c1ccccc1  activity change, negative = inhibition          -38.2
20  COC(=O)C1CCN(C(=O)NC2CC(=O)N(c3ccc4c(c3)OCCO4)C2)CC1 (configuration not stated)  activity change, negative = inhibition          -8.55
21  CCC(=O)N1CCc2cc(Br)cc(S(=O)(=O)Nc3ccc(C)cc3C)c21  activity change, negative = inhibition          -2.54
